Source of measurements: patent US20250281627A1

# Tested on: H9C2 cells
# test details: Cytotoxicity CCK-8
# Format: cell-based, rat
# particulars: Rattus norvegicus, H9c2; 48 hours, CCK-8; normal cells (cardiomyocytes)
Where a name gives a salt, the structure may show the parent alone.
readout name: IC50
Form entry: enter the amount, then its unit.

Enquiry: Return IC50 measured with H9C2 cells given this molecule: COc1cccc2c1C(=O)c1c(O)c3c(c(O)c1C2=O)C[C@@](O)(C(=O)CO)C[C@@H]3O[C@H]1C[C@H](N)[C@H](O)[C@H](C)O1 [DOX, Doxorubicin hydrochloride]
Return: 120 nM
